Task for the reader: assign each of the following molecules its reported Size PDI (size polydispersity index).
assay-name: Dynamic light scattering (DLS) of Fluc mRNA/peptoid formulations: particle size and polydispersity
Assay type: physicochemical
stated-conditions: Fluc mRNA/peptoid formulation, 5:1 mass ratio peptoid:cargo

Query: Looking for the measured Size PDI (size polydispersity index) of CCCCCCCCCCN(CC(N)=O)C(=O)CN(CCc1ccccc1)C(=O)CN(CCc1ccccc1)C(=O)CN(CCN)C(=O)CN(CCc1ccccc1)C(=O)CN(CCc1ccccc1)C(=O)CN(CCN)C(=O)CN(CCc1ccccc1)C(=O)CN(CCc1ccccc1)C(=O)CNCCN , can you help?
Response: 0.348

Query: Looking for the measured Size PDI (size polydispersity index) of CCCCCCCCCCN(CC(=O)N(CCN)CC(=O)N(CCc1ccccc1)CC(=O)N(CCc1ccccc1)CC(=O)N(CCCCCCCCCC)CC(=O)N(CCN)CC(=O)N(CCc1ccccc1)CC(=O)N(CCc1ccccc1)CC(N)=O)C(=O)CN(CCc1ccccc1)C(=O)CN(CCc1ccccc1)C(=O)CNCCN , can you help?
Response: 0.37

Query: Looking for the measured Size PDI (size polydispersity index) of CCCCCCCCCCN(CC(N)=O)C(=O)CN(CCCCCCCCCC)C(=O)CN(CCN)C(=O)CN(CCN)C(=O)CNCCN , can you help?
Response: 0.233

Query: Looking for the measured Size PDI (size polydispersity index) of CCCCCCCCCCN(CC(N)=O)C(=O)CN(CCCCCCCCCC)C(=O)CN(CCc1ccccc1)C(=O)CN(CCc1ccccc1)C(=O)CN(CCN)C(=O)CN(CCc1ccccc1)C(=O)CN(CCc1ccccc1)C(=O)CNCCN , can you help?
Response: 0.009

Query: Looking for the measured Size PDI (size polydispersity index) of CCCCCCCCCCN(CC(N)=O)C(=O)CN(CCCCCCCCCC)C(=O)CN(CCc1ccccc1)C(=O)CN(CCc1ccccc1)C(=O)CN(CC1CCCN1)C(=O)CN(CCc1ccccc1)C(=O)CN(CCc1ccccc1)C(=O)CN(CC1CCCN1)C(=O)CN(CCc1ccccc1)C(=O)CN(CCc1ccccc1)C(=O)CNCC1CCCN1 (centres unmarked) , can you help?
Response: 0.127

These data points were gathered from patent US11701434B2.
